Listed next: entries and their corresponding organic compound effect(no GH61).
- Tested on: Trichoderma reesei cellulase composition
- Format: biochemical
- Condition Context: AVICEL, 1 mM organic compound, pH 5.0, 50° C., 7 days

- Compound: "O=C1OC(C(O)CO)C(=O)C1=O (stereo not shown) [dehydroascorbate]"
  organic compound effect(no GH61): "1.14±0.00522"
- Compound: "O=C(O)c1ccc(O)cc1 [4-hydroxybenzoic acid]"
  organic compound effect(no GH61): "0.961±0.0250"
- Compound: "COC(=O)c1cc(O)c(O)c(O)c1 [methyl-3,4,5-trihydroxybenzoate]"
  organic compound effect(no GH61): "0.947±0.00189"
- Compound: "Oc1ccccc1O"
  organic compound effect(no GH61): "0.766±0.0361"
- Compound: "O=C(O)c1ccc(O)c(O)c1 [3,4-dihydroxybenzoic acid]"
  organic compound effect(no GH61): "0.977±0.0208"
- Compound: "Oc1cccc(O)c1O"
  organic compound effect(no GH61): "0.735±0.00518"

---

- Test system: Trichoderma reesei cellulase composition
- Assay type: biochemical
- Condition Context: AVICEL, 1 mM organic compound, pH 5.0, 50° C., 3 days

- Compound: "O=C1OC(C(O)CO)C(=O)C1=O (stereo not drawn) [dehydroascorbate]"
  organic compound effect(no GH61): 1.05
- Compound: "COC(=O)c1cc(O)c(O)c(O)c1 [methyl-3,4,5-trihydroxybenzoate]"
  organic compound effect(no GH61): 0.989
- Compound: "O=C(O)c1ccc(O)cc1 [4-hydroxybenzoic acid]"
  organic compound effect(no GH61): 0.959

---

- Test system: Trichoderma reesei cellulase composition
- Type: biochemical
- Condition Context: AVICEL, 1 mM organic compound, pH 5.0, 50° C., 3 days
- Procedure: Microcrystalline cellulose was used as the source of cellulosic material. The concentration of each organic compound was 1 mM.

- Compound: "O=C(O)C(O)C(O)C(=O)O (stereo not drawn) [tartrate]"
  organic compound effect(no GH61): "below 1"
- Compound: "COc1cc(C=CC(=O)O)ccc1O [4-hydroxy-3-methoxycinnamic acid]"
  organic compound effect(no GH61): "below 1"
- Compound: "N[C@@H](CCC(=O)O)C(=O)O"
  organic compound effect(no GH61): "below 1"
